Reference for the values: patent US20190315842A1

Biological target: T1, histidine-tRNA ligase (Jo-1) (UniProt P12081 2-509)
T1 sequence (looked up): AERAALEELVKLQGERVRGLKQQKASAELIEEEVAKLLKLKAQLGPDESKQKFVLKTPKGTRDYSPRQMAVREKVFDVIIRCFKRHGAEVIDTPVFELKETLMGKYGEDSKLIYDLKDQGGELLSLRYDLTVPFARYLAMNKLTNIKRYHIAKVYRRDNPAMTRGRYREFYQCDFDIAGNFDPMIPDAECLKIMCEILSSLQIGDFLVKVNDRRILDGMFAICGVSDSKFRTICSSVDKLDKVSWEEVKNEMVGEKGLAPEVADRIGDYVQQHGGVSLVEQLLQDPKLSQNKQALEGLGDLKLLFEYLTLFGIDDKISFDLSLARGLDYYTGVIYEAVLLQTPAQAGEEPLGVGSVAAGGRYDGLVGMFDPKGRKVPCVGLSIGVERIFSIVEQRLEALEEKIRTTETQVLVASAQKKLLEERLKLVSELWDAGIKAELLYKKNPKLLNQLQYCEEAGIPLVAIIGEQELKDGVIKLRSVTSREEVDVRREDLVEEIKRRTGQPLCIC
Assay: AtheNA Multi-Lyte ANA, Ab at 50 ug/ml;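 note: monoclonal antibodies probed against a nuclear autoantigen panel (SSA, SSB, Sm, RNP, Scl-70, Jo-1, dsDNA, CentB, histones), with anti-HIV 4E10 and palivizumab as control antibodies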
AtheNA signal reference
assay readout: AtheNA signal

1. Ab7957/293i (antibody, IgG1, V domains shown, Recombinant human antibody with IgG1 heavy chain backbone and kappa light chain constant; they begin at LVESGGG and MTQSP; also called Ab7957i; mAb 7957) VH: LVESGGGVVPPGKSLRLSCAASGFTFSLYGIHWVRQAPGKGLEWVAVISYDGNTKYYTDSVKGRFTISRDNAKNTIYLQMNSLRLDDTAVYYCAKGAANSATFDFWGRGTMVTVSS VL: MTQSPDSLTLSLGERATINCRSSRTVLYRSNNKNYLAWYQHKPGQPPKLLMSWASTRETGVPDRFSGSGSGTHFTLTITSLQPEDVAVYYCQQYYSPPWTFGQGTKVEIR ... 5
2. Ab7960/293i (antibody, IgG1, V domains shown, Recombinant human antibody with IgG1 heavy chain backbone and kappa light chain constant; they begin at LVESGGG and MTQSP; also called mAb 7960; mAb7960) VH: LVESGGGVVQPGKSLRLSCVASGFSFSTYGMHWVRQAPGKGLEWVAVMSFDGKTKYYADSVKGRFTISRDNPKNTLYLQMNSLRSEDTAVYYCAKGGAAAAVFDSWGPGILLTVSS VL: MTQSPNSLAVSLGGRATINCKASQSILYRSNNKNYLAWYQHKAGQPPKLLIYWASTRESGVPERFSGSGSRTDFTLTINGLQAEDVAVYYCQQYYNPPWTFGQGTKVEIK ... 5
3. Ab7968 (antibody, IgG1, V domains shown, Recombinant human antibody with IgG1 heavy chain backbone and kappa light chain constant; they begin at LVESGGG and MTQSP; also called mAb 7968; mAb7968) VH: LVESGGGVVQPGRSLRLSCAASGFTFSRYGMHWVRQAPGKGLEWVAVMSYDGSTKYYADSVKGRFAISRDNPKNTLFLQMNSLRPDDTAVYYCAKGGAAAAVMDVWGKGTTVTVSS VL: MTQSPDSLTVSLGERATISCKSSQRLLYSSNNKNYLAWYQQKPGQPPKLLMYWASTRESGVPDRFSGSGSGTDFSLTISSLQAEDVAVYYCQQYYNPPWTFGQGTKVEVK ... 7
4. Ab7962/293i (antibody, V domains shown, Recombinant human antibody with IgG1 heavy chain backbone and kappa light chain constant (IgM in the donor B cell); they begin at LVESGGG and MTQSL; also called clone 27; pH007962/pK005996) VH: LVESGGGLVQPGGSLRLSCAASGFTFSSYEMNWVRQAPGKGLEWVSYISSSGSTIYYADSVKGRFTISRDNAKNSLYLQMNSLRAEDTAVYYCARVEQLAPSPYMDVWGKGTTVTVSS VL: MTQSLDSLTVSLGERATINCKSSQSLLYTSNNKNYLAWYQQKSGQPPKLLIYWASIRDSGVPDRFSGSGSATDFTLTINNLQAEDVAVYFCQQYYKTPLTFGGGTKVEVR ... 4
